target: Fuc(a1-2)[Gal(a1-3)]Gal(b1-3)GlcNAc(b1-2)Man(a1-3)[Fuc(a1-2)[Gal(a1-3)]Gal(b1-3)GlcNAc(b1-2)Man(a1-6)]Man(b1-4)GlcNAc(b1-4)GlcNAc; experiment: glycan array binding signal (z-score within array); higher = stronger binding; conditions: glycan notation: IUPAC condensed, linker removed
About 410 targets per protein were measured; listed, in parts, are those with the strongest signals and a random draw of the rest.
assay_readout: glycan array binding signal (z-score)
Answers are plain numbers.

Solved entries (count: 3):
{"binder": "CV-2L (Chromobacterium violaceum), Q7NX84 (protein) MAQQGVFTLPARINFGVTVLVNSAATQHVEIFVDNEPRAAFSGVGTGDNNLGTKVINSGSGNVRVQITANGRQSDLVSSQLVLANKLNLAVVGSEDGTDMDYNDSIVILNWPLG", "recorded_result": -0.292}
{"binder": "Eosinophil-derived neurotoxin (EDN) (Homo sapiens), P10153 (protein) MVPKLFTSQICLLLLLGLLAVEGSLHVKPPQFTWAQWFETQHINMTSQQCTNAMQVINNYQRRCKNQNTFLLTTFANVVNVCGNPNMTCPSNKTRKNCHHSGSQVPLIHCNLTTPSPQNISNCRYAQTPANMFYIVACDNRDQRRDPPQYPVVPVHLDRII", "recorded_result": 0.666}
{"binder": "Epa21 (Candida glabrata) (protein) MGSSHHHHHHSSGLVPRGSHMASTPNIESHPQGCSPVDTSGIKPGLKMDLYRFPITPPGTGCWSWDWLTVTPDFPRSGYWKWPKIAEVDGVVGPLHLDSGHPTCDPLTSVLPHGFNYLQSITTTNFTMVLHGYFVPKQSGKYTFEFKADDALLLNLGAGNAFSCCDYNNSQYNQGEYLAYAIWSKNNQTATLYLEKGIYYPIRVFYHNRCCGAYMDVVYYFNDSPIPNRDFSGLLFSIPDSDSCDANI", "recorded_result": -0.507}

Consider the record given below.
IN: Fill blank: measured glycan array binding signal (z-score) of the binder PfulAvr4 (Pseudocercospora fuligena) (protein) HHHHHHDYKDDDDKTYVQDKTPAFVCPAADIKTTKCLGPKDCLYPSPKTCNGYIQCSPADDSYLTGIIHEMPCPSGLLWNDNKKWCDWPENTTCGLVKSAGATEVDATKQGPTPGKYHG is ____.
OUT: -0.05

Where do the numbers come from? From the supplement of paper PMC8728848.
